test-target: Inhibitor of nuclear factor kappa-B kinase subunit alpha (Homo sapiens)
Sequence (O15111 whole entry): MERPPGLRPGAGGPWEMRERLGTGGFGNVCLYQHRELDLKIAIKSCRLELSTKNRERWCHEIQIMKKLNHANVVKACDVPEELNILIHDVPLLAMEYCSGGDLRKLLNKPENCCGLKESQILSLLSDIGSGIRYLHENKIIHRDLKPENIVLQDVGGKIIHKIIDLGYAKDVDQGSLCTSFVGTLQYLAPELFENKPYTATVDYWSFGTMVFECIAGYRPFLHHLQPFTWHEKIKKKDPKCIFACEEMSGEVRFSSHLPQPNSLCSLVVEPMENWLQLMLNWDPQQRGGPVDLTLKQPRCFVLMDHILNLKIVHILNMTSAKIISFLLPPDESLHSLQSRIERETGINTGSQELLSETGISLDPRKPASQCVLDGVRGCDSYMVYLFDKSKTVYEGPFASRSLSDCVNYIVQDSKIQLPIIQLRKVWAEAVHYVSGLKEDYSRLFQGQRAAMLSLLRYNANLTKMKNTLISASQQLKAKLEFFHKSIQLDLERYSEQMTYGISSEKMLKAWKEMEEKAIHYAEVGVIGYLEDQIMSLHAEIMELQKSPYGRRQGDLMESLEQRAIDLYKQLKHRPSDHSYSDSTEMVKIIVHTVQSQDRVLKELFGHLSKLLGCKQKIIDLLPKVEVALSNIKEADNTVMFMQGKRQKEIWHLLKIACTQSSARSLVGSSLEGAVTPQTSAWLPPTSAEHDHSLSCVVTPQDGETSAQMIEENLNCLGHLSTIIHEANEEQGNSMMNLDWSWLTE
assay-method-text: Inhibitory activity against IKK1
observed-property: IC50 (nM)

Consider the worked cases shown below.
{"columns": ["compound", "IC50 [nM]"],
 "data": [
  ["Cc1ccc(Nc2nccc(-c3ccc(S(=O)(=O)N4CCNCC4)cc3)n2)cc1", 2090],
  ["C[S+]([O-])c1ccc(Nc2nccc(-c3ccc(S(=O)(=O)N4CCNCC4)cc3)n2)cc1 (centres undefined)", 2340],
  ["O=S(=O)(c1ccc(-c2ccnc(Nc3cc(F)cc(F)c3)n2)cc1)N1CCNCC1", 4070],
  ["COc1ccc(Nc2nccc(-c3ccc(S(=O)(=O)N4CCNCC4)cc3)n2)cc1", 1230]
]}

I. O=[N+]([O-])c1ccc(Nc2nccc(-c3ccc(S(=O)(=O)N4CCNCC4)cc3)n2)cc1
II. NS(=O)(=O)c1ccc(Nc2nccc(-c3ccc(S(=O)(=O)N4CCNCC4)cc3)n2)cc1
Request: Compare I and II by numeric IC50 and name the larger one. Return value: the label identifying the chosen record.
Result: I
(I: 6920 nM, II: 245 nM)

a. CCCCc1ccc(Nc2nccc(-c3ccc(S(=O)(=O)N4CCNCC4)cc3)n2)cc1
b. COc1cc(Nc2nccc(-c3ccc(S(=O)(=O)N4CCNCC4)cc3)n2)cc(OC)c1OC
c. NC(=O)Nc1ccc(Nc2nccc(-c3ccc(S(=O)(=O)N4CCNCC4)cc3)n2)cc1
Request: Rank items: key IC50, increasing. I'd appreciate it if you listed the labels in the requested order.
Result: b, c, a
(b: 155 nM, c: 1480 nM, a: 2690 nM)
